Measured microsomal CLint accompanies every entry in the list below.
Test: Metabolic stability in rat liver microsomes
Assay type: in vitro ADME, SD rat
Conditions: Sprague-Dawley (SD); Rat liver microsomes; read-out: CLint(mic)
Please state the figure in µL/min/mg; there is no need to write the unit.

1. COc1ccc(-n2c(=O)c3c(CN(C)C)c(-c4ccc(NC(=O)NOCC(F)F)cc4)sc3n(Cc3c(F)cccc3F)c2=O)nn1 [Compound 7] = 25.2

Now let's try a different one.
Data request: Requested read-out: microsomal CLint. Entry: CONC(=O)Nc1ccc(-c2sc3c(c2CN(C)C)c(=O)n(-c2cccc(OC(F)F)c2F)c(=O)n3Cc2c(F)cccc2F)cc1 [Compound 3]
Data returned: 34.8

====

Test: Metabolic stability in human liver microsomes
Assay type: in vitro ADME
Details: read-out: CLint(mic)
measurement-type: microsomal CLint

Below, each entry is followed by its recorded microsomal CLint result.
1) CONC(=O)Nc1ccc(-c2sc3c(c2CN(C)C)c(=O)n(-c2ccc(OC)nn2)c(=O)n3Cc2c(F)cccc2F)cc1 [Relugolix, reference compound] = 5.8 µL/min/mg
2) CONC(=O)Nc1ccc(-c2sc3c(c2CN(C)C)c(=O)n(-c2cccc(OC(F)F)c2F)c(=O)n3Cc2c(F)cccc2F)cc1 = 19.4 µL/min/mg
3) CNc1ccc(-n2c(=O)c3c(CN(C)C)c(-c4ccc(NC(=O)NOC)cc4)sc3n(Cc3c(F)cccc3F)c2=O)nn1 = < 7.5 µL/min/mg

Now let's try a different one.
Data request: Requested read-out: microsomal CLint. Entry: CONC(=O)Nc1ccc(-c2sc3c(c2CN(C)C)c(=O)n(-c2ccc(OC)nn2)c(=O)n3Cc2c(F)cccc2C(F)(F)F)cc1
Data returned: < 7.5 µL/min/mg
